- Tested on: NCI-H23
- Method: NCI human tumor cell panel
- Conditions: NCI-H23, read-out: Log10 LC50 (converted)
Recorded CC50, one value per entry.

Solved cases below.
OCc1ccc(-c2ccc(-c3ccc(CO)[se]3)[se]2)[se]1 :: 95.5 µM
O=Cc1ccc(-c2ccc(-c3cccs3)[se]2)s1 :: > 100 µM
O=Cc1ccc(-c2ccc(-c3ccc[se]3)[se]2)[se]1 :: 69.2 µM

Enquiry: Bench note: what CC50 did O=Cc1ccc(-c2ccc(-c3ccc(C=O)s3)[se]2)s1 show?
Return: > 100 µM

Enquiry: Ok, now O=Cc1ccc(-c2ccc(-c3ccc(C=O)[se]3)s2)s1
Return: > 100 µM

Enquiry: Ok, now OCc1ccc(-c2ccc(-c3ccc(CO)s3)[se]2)s1
Return: > 100 µM

---

- Test system: PC-3
- Method: NCI human tumor cell panel
- Assay type: cell-based
- Conditions: PC-3, read-out: Log10 LC50 (converted)
Readout: CC50

Solved cases below.
O=Cc1ccc(-c2ccc(-c3ccc(C=O)[se]3)[se]2)[se]1 :: > 100 µM
OCc1ccc(-c2ccc(-c3ccc(CO)[se]3)s2)s1 :: > 100 µM
OCc1ccc(-c2ccc(-c3ccc[se]3)s2)[se]1 :: > 100 µM
O=Cc1ccc(-c2ccc(-c3ccc[se]3)[se]2)[se]1 :: 87.1 µM
O=Cc1ccc(-c2ccc(-c3ccc(C=O)s3)[se]2)s1 :: > 100 µM

Please examine the following record next.
Enquiry: Bench note: what CC50 did OCc1ccc(-c2ccc(-c3ccc(CO)s3)[se]2)s1 show?
Return: > 100 µM
